System: MCF7-R (mammary carcinoma cells 250-fold resistant to paclitaxel)
assay.procedure: Tumor growth inhibitory activity (cytotoxicity), SRB method of Skehan et al, MCF7-R
Assay type: cell-based, human
condition.context: Homo sapiens, MCF7R, 72 h, read-out: IC50 MCF7-R (breast)
pIC50: −log10 of the molar value.

compound	target.or.test.system	pIC50
CC(=O)O[C@@]12CO[C@@H]1C[C@H](O)[C@@]1(C)C(=O)[C@H](OC(=O)N(C)C)C3=C(C)[C@@H](OC(=O)[C@H](O)[C@H](C=C(F)F)NC(=O)OC(C)(C)C)C[C@@](O)([C@@H](OC(=O)c4ccccc4)C12)C3(C)C (stereo partly drawn)	MCF7-R (mammary carcinoma cells 250-fold resistant to paclitaxel)	8.37
CC(=O)O[C@@]12CO[C@@H]1C[C@H](O)[C@@]1(C)C(=O)[C@H](OC(=O)N(C)C)C3=C(C)[C@@H](OC(=O)[C@H](O)[C@H](C=C(F)F)NC(=O)OC(C)(C)C)C[C@@](O)([C@@H](OC(=O)c4cccc(N=[N+]=[N-])c4)C12)C3(C)C (stereo partly drawn)	MCF7-R (mammary carcinoma cells 250-fold resistant to paclitaxel)	9.35
CC(=O)O[C@@]12CO[C@@H]1C[C@H](O)[C@@]1(C)C(=O)[C@H](OC(=O)N(C)C)C3=C(C)[C@@H](OC(=O)[C@H](O)[C@H](C=C(F)F)NC(=O)OC(C)(C)C)C[C@@](O)([C@@H](OC(=O)c4cccc(Cl)c4)C12)C3(C)C (stereo partly drawn)	MCF7-R (mammary carcinoma cells 250-fold resistant to paclitaxel)	8.59

###

# melting point listing for each entry below
measurement.kind: melting point

compound	measurement.kind	measured
CCC(=O)O[C@H]1C(=O)[C@@]2(C)C([C@H](OC(=O)c3ccccc3)[C@]3(O)C[C@H](OC(=O)[C@H](O)[C@H](C=C(F)F)NC(=O)OC(C)(C)C)C(C)=C1C3(C)C)[C@]1(OC(C)=O)CO[C@@H]1C[C@@H]2O (stereo partly shown)	melting point	175 to 181 °C
CC(=O)O[C@H]1C(=O)[C@@]2(C)C([C@H](OC(=O)c3ccccc3)[C@]3(O)C[C@H](OC(=O)[C@H](O)[C@H](C=C(F)F)NC(=O)OC(C)(C)C)C(C)=C1C3(C)C)[C@]1(OC(C)=O)CO[C@@H]1C[C@@H]2O (stereo partly shown)	melting point	155 to 160 °C
COC(=O)O[C@H]1C(=O)[C@@]2(C)C([C@H](OC(=O)c3ccccc3)[C@]3(O)C[C@H](OC(=O)[C@H](O)[C@H](C=C(F)F)NC(=O)OC(C)(C)C)C(C)=C1C3(C)C)[C@]1(OC(C)=O)CO[C@@H]1C[C@@H]2O (stereo partly shown)	melting point	144 to 148 °C
CC(=O)O[C@@]12CO[C@@H]1C[C@H](O)[C@@]1(C)C(=O)[C@H](OC(=O)N(C)C)C3=C(C)[C@@H](OC(=O)[C@H](O)[C@H](C=C(F)F)NC(=O)OC(C)(C)C)C[C@@](O)([C@@H](OC(=O)c4ccccc4)C12)C3(C)C (stereo partly shown)	melting point	166 to 170 °C

###

System: MCF7-R (mammary carcinoma cells 250-fold resistant to paclitaxel)
assay.procedure: Tumor growth inhibitory activity (cytotoxicity), SRB method of Skehan et al, MCF7-R
Type: cell-based, human
condition.context: drug-resistant cell line; 72 h drug exposure; SRB; mean of at least three separate experiments; read-out: IC50 MCF7-R (breast)
Below, each entry is listed alongside its reported IC50.
measurement.kind: IC50 (nM)

compound	display.unit	measured
COc1cccc(C(=O)O[C@H]2[C@@H]3[C@]4(OC(C)=O)CO[C@@H]4C[C@H](O)[C@@]3(C)C(=O)[C@H](OC(=O)C3CC3)C3=C(C)[C@@H](OC(=O)[C@H](O)[C@H](C=C(F)F)NC(=O)OC(C)(C)C)C[C@]2(O)C3(C)C)c1 [SB-T-12852-1]	nM	0.48
CC(=O)OC12COC1CC(O)C1(C)C(=O)C(OC(=O)C3CC3)C3=C(C)C(OC(=O)C(O)C(C=C(F)F)NC(=O)OC(C)(C)C)CC(O)(C(OC(=O)c4cccc(Cl)c4)C21)C3(C)C (centres unmarked) [SB-T-12852-4]	nM	0.5
CC(=O)OC12COC1CC(O)C1(C)C(=O)C(OC(=O)C3CC3)C3=C(C)C(OC(=O)C(O)C(C=C(F)F)NC(=O)OC(C)(C)C)CC(O)(C(OC(=O)c4cccc(F)c4)C21)C3(C)C (centres unmarked) [SB-T-12852-2]	nM	1.72
CC(=O)O[C@@]12CO[C@@H]1C[C@H](O)[C@@]1(C)C(=O)[C@H](OC(=O)C3CC3)C3=C(C)[C@@H](OC(=O)[C@H](O)[C@H](C=C(F)F)NC(=O)OC(C)(C)C)C[C@@](O)([C@@H](OC(=O)c4ccccc4)[C@H]21)C3(C)C [SB-T-12852]	nM	6.03
CC(=O)O[C@@]12CO[C@@H]1C[C@H](O)[C@@]1(C)C(=O)[C@H](OC(=O)C3CC3)C3=C(C)[C@@H](OC(=O)[C@H](O)[C@H](C=C(F)F)NC(=O)OC(C)(C)C)C[C@@](O)([C@@H](OC(=O)c4cccc(N=[N+]=[N-])c4)[C@H]21)C3(C)C [SB-T-12852-3]	nM	0.45
